- System: T47D cells
- test.name: Cell viability (cell kill) assay
- Type: cell-based
- measurement.setup: T47D; Table 12; 3 days; read-out: IC50
property.name: IC50 (nM)
Express the result in nM but write the number alone.

Please review the entries below; each comes with its answer.
molecule: H1H6800P-DM1 (conjugate) VH: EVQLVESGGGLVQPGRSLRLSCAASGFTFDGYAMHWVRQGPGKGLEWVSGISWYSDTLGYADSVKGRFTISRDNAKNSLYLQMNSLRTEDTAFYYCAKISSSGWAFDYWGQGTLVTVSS VL: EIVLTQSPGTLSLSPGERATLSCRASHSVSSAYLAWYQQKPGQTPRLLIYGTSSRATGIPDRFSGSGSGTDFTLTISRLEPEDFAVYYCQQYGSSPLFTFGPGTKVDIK
quantity.unit: nM
IC50: 3.2
//
molecule: H1H6958N2-DM1: anti-PRLR antibody H1H6958N2 conjugated to DM1 through an SMCC linker (conjugate) VH: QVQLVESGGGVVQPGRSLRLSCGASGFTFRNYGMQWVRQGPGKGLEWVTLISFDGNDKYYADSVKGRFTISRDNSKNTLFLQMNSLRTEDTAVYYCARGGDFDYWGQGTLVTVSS VL: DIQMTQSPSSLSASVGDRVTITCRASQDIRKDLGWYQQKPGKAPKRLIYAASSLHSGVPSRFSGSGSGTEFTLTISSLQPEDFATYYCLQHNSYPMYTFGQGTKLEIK
quantity.unit: nM
IC50: 1.34
//
molecule: H1H6762P-DM1 (conjugate) VH: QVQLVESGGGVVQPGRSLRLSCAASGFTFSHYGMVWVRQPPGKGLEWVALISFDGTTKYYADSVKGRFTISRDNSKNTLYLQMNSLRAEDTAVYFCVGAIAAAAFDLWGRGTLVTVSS VL: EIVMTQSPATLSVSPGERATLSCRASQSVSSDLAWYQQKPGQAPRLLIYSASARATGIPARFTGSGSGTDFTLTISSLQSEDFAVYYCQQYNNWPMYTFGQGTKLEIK
quantity.unit: nM
IC50: 12.6
//
molecule: H1H6953N-DM1 (conjugate) VH: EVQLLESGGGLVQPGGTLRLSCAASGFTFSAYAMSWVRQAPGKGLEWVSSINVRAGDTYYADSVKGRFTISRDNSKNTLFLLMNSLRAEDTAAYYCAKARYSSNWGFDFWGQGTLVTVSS VL: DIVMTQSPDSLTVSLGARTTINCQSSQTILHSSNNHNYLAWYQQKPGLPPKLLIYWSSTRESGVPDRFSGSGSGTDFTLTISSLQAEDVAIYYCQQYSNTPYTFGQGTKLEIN
quantity.unit: nM
IC50: 1.64

Please find the next molecule below.
For reference, reported IC50 for H1H6782P-DM1: anti-PRLR antibody H1H6782P conjugated to DM1 through an SMCC linker (conjugate) VH: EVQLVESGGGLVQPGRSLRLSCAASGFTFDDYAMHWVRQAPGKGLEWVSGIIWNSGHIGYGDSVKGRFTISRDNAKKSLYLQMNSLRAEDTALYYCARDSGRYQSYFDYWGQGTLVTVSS VL: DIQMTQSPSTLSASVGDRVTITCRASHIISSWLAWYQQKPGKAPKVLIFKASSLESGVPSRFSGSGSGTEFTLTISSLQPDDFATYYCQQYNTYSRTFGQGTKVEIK stands at 4.19
